These data points were gathered from the supplement of paper PMC9112550.

system: Escherichia coli TOP10; experiment: shrunken log2 fold change of peptide-encoding DNA abundance (4.5 h post-induction vs induction); higher = less antimicrobial activity (less host growth inhibition); details: time post-induction: 4.5 h; library: site-saturation at positions 5, 18, 19, 20
shrunken log2 fold change reference

> print(dat)
            sequence.input                  parameter  result
1  RRIRMRPPRLPRPRPRPGWYPRP  shrunken log2 fold change  -0.277
2  RRIRFRPPRLPRPRPRPINLPRP  shrunken log2 fold change  -0.291
3  RRIRARPPRLPRPRPRPPHPPRP  shrunken log2 fold change   0.527
4  RRIRTRPPRLPRPRPRPGVHPRP  shrunken log2 fold change  -0.055
5  RRIRSRPPRLPRPRPRPMQEPRP  shrunken log2 fold change   0.169

*Q* Given the sequence RRIRPRPPRLPRPRPRPWNVPRP , write its reported shrunken log2 fold change.
*A* -0.052

*Q* Given the sequence RRIRPRPPRLPRPRPRPQSMPRP , write its reported shrunken log2 fold change.
*A* -0.609

*Q* Given the sequence RRIRRRPPRLPRPRPRPKYTPRP , write its reported shrunken log2 fold change.
*A* -0.000338

*Q* Given the sequence RRIRDRPPRLPRPRPRPPWLPRP , write its reported shrunken log2 fold change.
*A* 0.296

*Q* Given the sequence RRIRHRPPRLPRPRPRPKPAPRP , write its reported shrunken log2 fold change.
*A* 0.0168

*Q* Given the sequence RRIRLRPPRLPRPRPRPDLYPRP , write its reported shrunken log2 fold change.
*A* -0.0419

*Q* Given the sequence RRIRERPPRLPRPRPRPKDWPRP , write its reported shrunken log2 fold change.
*A* 0.111

* * *

tested on: Escherichia coli TOP10; assay: shrunken log2 fold change of peptide-encoding DNA abundance (4.5 h post-induction vs induction); higher = less antimicrobial activity (less host growth inhibition); conditions: time post-induction: 4.5 h; library: site-saturation at positions 5, 18, 19, 20
shrunken log2 fold change reference

Use the examples below as a reference point.
> print(dat)
             sequence.input           target.entity                  parameter   result
 1  RRIRERPPRLPRPRPRPNGGPRP  Escherichia coli TOP10  shrunken log2 fold change  -0.0469
 2  RRIRCRPPRLPRPRPRPASDPRP  Escherichia coli TOP10  shrunken log2 fold change  -0.0092
 3  RRIRLRPPRLPRPRPRPWRIPRP  Escherichia coli TOP10  shrunken log2 fold change   0.0246
 4  RRIRYRPPRLPRPRPRPHEPPRP  Escherichia coli TOP10  shrunken log2 fold change   -0.133
 5  RRIRKRPPRLPRPRPRPAQLPRP  Escherichia coli TOP10  shrunken log2 fold change   0.0282
 6  RRIRWRPPRLPRPRPRPCVDPRP  Escherichia coli TOP10  shrunken log2 fold change   0.0275
 7  RRIRYRPPRLPRPRPRPQIMPRP  Escherichia coli TOP10  shrunken log2 fold change   -0.705
 8  RRIRWRPPRLPRPRPRPCAIPRP  Escherichia coli TOP10  shrunken log2 fold change    0.027
 9  RRIRVRPPRLPRPRPRPAHVPRP  Escherichia coli TOP10  shrunken log2 fold change   0.0119
10  RRIRSRPPRLPRPRPRPYICPRP  Escherichia coli TOP10  shrunken log2 fold change   -0.959

*Q* Given the sequence RRIRWRPPRLPRPRPRPLIIPRP , write its reported shrunken log2 fold change.
*A* -0.269

*Q* Given the sequence RRIRHRPPRLPRPRPRPCFMPRP , write its reported shrunken log2 fold change.
*A* -0.404

*Q* Given the sequence RRIRQRPPRLPRPRPRPCKWPRP , write its reported shrunken log2 fold change.
*A* -0.0434

*Q* Given the sequence RRIRIRPPRLPRPRPRPQLYPRP , write its reported shrunken log2 fold change.
*A* -0.303

*Q* Given the sequence RRIRERPPRLPRPRPRPTQLPRP , write its reported shrunken log2 fold change.
*A* 0.251

* * *

tested on: Escherichia coli TOP10; assay: shrunken log2 fold change of peptide-encoding DNA abundance (4.5 h post-induction vs induction); higher = less antimicrobial activity (less host growth inhibition); conditions: time post-induction: 4.5 h; library: site-saturation at positions 5, 18, 19, 20
Grouping by measured shrunken log2 fold change is done with the following cut points: zone 1: < -0.3; zone 2: ≥ -0.3 and < -0.001; zone 3: ≥ -0.001

Recorded results for 3 sequences are shown here.
> print(dat)
            sequence.input  label.value
1  RRIRARPPRLPRPRPRPEVKPRP       zone 3
2  RRIRNRPPRLPRPRPRPNAKPRP       zone 2
3  RRIRTRPPRLPRPRPRPVAYPRP       zone 1

*Q* Quick check: band for RRIRFRPPRLPRPRPRPMIFPRP
*A* zone 1

* * *

system: Escherichia coli TOP10; assay: shrunken log2 fold change of peptide-encoding DNA abundance (4.5 h post-induction vs induction); higher = less antimicrobial activity (less host growth inhibition); details: time post-induction: 4.5 h; library: site-saturation at positions 5, 18, 19, 20
Parameter: shrunken log2 fold change
# answer = number (no unit)

*Q* Given the sequence RRIRRRPPRLPRPRPRPSPIPRP , write its reported shrunken log2 fold change.
*A* 0.11

* * *

shrunken log2 fold change reference
tested on: Escherichia coli TOP10; assay: shrunken log2 fold change of peptide-encoding DNA abundance (4.5 h post-induction vs induction); higher = less antimicrobial activity (less host growth inhibition); details: time post-induction: 4.5 h; library: site-saturation at positions 5, 18, 19, 20

*Q* Given the sequence RRIRWRPPRLPRPRPRPFVVPRP , write its reported shrunken log2 fold change.
*A* -0.242

*Q* Given the sequence RRIRPRPPRLPRPRPRPQHAPRP , write its reported shrunken log2 fold change.
*A* 0.041

*Q* Given the sequence RRIRPRPPRLPRPRPRPDRRPRP , write its reported shrunken log2 fold change.
*A* 0.192

*Q* Given the sequence RRIRFRPPRLPRPRPRPPVVPRP , write its reported shrunken log2 fold change.
*A* 0.159

*Q* Given the sequence RRIRCRPPRLPRPRPRPPVYPRP , write its reported shrunken log2 fold change.
*A* 0.000934

*Q* Given the sequence RRIRNRPPRLPRPRPRPHEFPRP , write its reported shrunken log2 fold change.
*A* -0.13

*Q* Given the sequence RRIRGRPPRLPRPRPRPCNCPRP , write its reported shrunken log2 fold change.
*A* 0.155

* * *

tested on: Escherichia coli TOP10; assay: shrunken log2 fold change of peptide-encoding DNA abundance (4.5 h post-induction vs induction); higher = less antimicrobial activity (less host growth inhibition); conditions: time post-induction: 4.5 h; library: site-saturation at positions 5, 18, 19, 20
Mark y for reported shrunken log2 fold change of 0.02 or greater; mark n for anything smaller.

Recorded results for 6 sequences are shown here.
> print(dat)
            sequence.input           target.entity  label.value
1  RRIRKRPPRLPRPRPRPWKFPRP  Escherichia coli TOP10            y
2  RRIRGRPPRLPRPRPRPADTPRP  Escherichia coli TOP10            y
3  RRIRMRPPRLPRPRPRPDSGPRP  Escherichia coli TOP10            n
4  RRIRVRPPRLPRPRPRPDMWPRP  Escherichia coli TOP10            n
5  RRIRTRPPRLPRPRPRPMYWPRP  Escherichia coli TOP10            n
6  RRIRTRPPRLPRPRPRPGYVPRP  Escherichia coli TOP10            n

*Q* Test whether the sequence RRIRGRPPRLPRPRPRPVGYPRP records shrunken log2 fold change of 0.02 or higher.
*A* y

*Q* Test whether the sequence RRIRSRPPRLPRPRPRPIEKPRP records shrunken log2 fold change of 0.02 or higher.
*A* n

*Q* Test whether the sequence RRIRERPPRLPRPRPRPPGCPRP records shrunken log2 fold change of 0.02 or higher.
*A* y

*Q* Test whether the sequence RRIRCRPPRLPRPRPRPYDWPRP records shrunken log2 fold change of 0.02 or higher.
*A* n

*Q* Test whether the sequence RRIRTRPPRLPRPRPRPVKYPRP records shrunken log2 fold change of 0.02 or higher.
*A* y

*Q* Test whether the sequence RRIRMRPPRLPRPRPRPWYFPRP records shrunken log2 fold change of 0.02 or higher.
*A* n

* * *

tested on: Escherichia coli TOP10; experiment: shrunken log2 fold change of peptide-encoding DNA abundance (4.5 h post-induction vs induction); higher = less antimicrobial activity (less host growth inhibition); conditions: time post-induction: 4.5 h; library: site-saturation at positions 5, 18, 19, 20;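 further: peptides expressed intracellularly from a pBAD plasmid library in pooled LB shake-flask culture, induced with 0.3% L-arabinose, DNA abundance read by NGS, three biological replicates, DESeq2 with apeglm shrinkage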
shrunken log2 fold change reference
# answer = number (no unit)

> print(dat)
            sequence.input                  parameter  recorded.number
1  RRIRQRPPRLPRPRPRPEYCPRP  shrunken log2 fold change          -0.0411
2  RRIRPRPPRLPRPRPRPQFSPRP  shrunken log2 fold change           -0.184
3  RRIRKRPPRLPRPRPRPKDCPRP  shrunken log2 fold change          -0.0519
4  RRIRGRPPRLPRPRPRPINFPRP  shrunken log2 fold change           -0.189
5  RRIRSRPPRLPRPRPRPVHFPRP  shrunken log2 fold change           0.0527

Now for the sequence whose shrunken log2 fold change we want.
*Q* Given the sequence RRIRERPPRLPRPRPRPDGFPRP , write its reported shrunken log2 fold change.
*A* -0.134
